Reference source for all entries: patent US8604016B2

- assayed_target: recombinant form of Glutaminase 1 (GAC) (Homo sapiens, UniProt O94925)
- test_protocol: Recombinant Enzyme Assay (GAC coupled to GDH, NADH absorbance, no preincubation)
- Type: biochemical
- condition_set: no preincubation; read-out: GAC Delta N2 IC50 no preinc
pIC50: −log10 of the molar value.
Given measured pIC50, output Y if it is greater than or equal to 6 and N if not.

1. N[C@H](C(=O)Nc1nnc(CCSCCc2nnc(NC(=O)[C@@H](N)c3ccccc3)s2)s1)c1ccccc1 :: N
2. O=C(Cc1ccco1)Nc1nnc(CCCCc2nnc(NC(=O)Cc3ccco3)s2)s1 :: Y
3. O=C(Cc1cc2ccccc2o1)Cc1nnc(CCSCCc2nnc(NC(=O)Cc3cc4ccccc4o3)s2)s1 :: N
4. CC(CCc1nnc(NC(=O)Cc2ccccc2)s1)CCc1nnc(NC(=O)Cc2ccccc2)s1 :: N
5. O=C(Cc1ccccc1)Nc1nnc(CCSCCc2nnc(NC(=O)Cc3ccccn3)s2)s1 :: Y
6. O=C(CC1CCCC1)Nc1nnc(CCCCc2nnc(NC(=O)CC3CCCC3)s2)s1 :: N
7. COc1ccccc1C(C)C(=O)Nc1nnc(CCSCCc2nnc(NC(=O)C(C)c3ccccc3OC)s2)s1 (stereo not shown) :: Y
8. Nc1nnc(CCCCc2nnc(NC(=O)C(CO)c3ccccc3)s2)s1 (stereo not shown) :: N
9. O=C(Cc1ccccc1)Nc1nnc(CCSCCc2nnc(N(COC(=O)OCCCN3CCOCC3)C(=O)Cc3ccccc3)s2)s1 :: N
10. COc1ccc(C(=O)Nc2nnc(CCSCCc3nnc(NC(=O)c4ccc(OC)cc4)s3)s2)cc1 :: N
11. O=C(Cn1cccn1)Nc1nnc(CCSCCc2nnc(NC(=O)Cn3cccn3)s2)s1 :: N
